# Test system: EAC-bearing mice
# method.summary: Hepatotoxicity and kidney toxicity parameters of EAC-bearing mice
# Format: in vivo, mouse
# measurement.conditions: EAC-bearing mice, treatment at IC50 dosage, mean±SD n=6
parameter: Creatinine

Hello, I would appreciate it if you could give Creatinine for each entry below.
1. COc1cc(O)c2c(=O)c3c(OC)c(OC)ccc3oc2c1 [XA, 1-hydroxy-3,7,8-trimethoxyxanthone]
2. COc1cc(O)c2c(=O)c3c(O)ccc(OC)c3oc2c1 [XB, 1,8-dihydroxy-3,5-dimethoxyxanthone]

Output:
1: 1.7 ± 0.09 mg/dL; 2: 1.1 ± 0.09 mg/dL

Go through the items and report each one's Creatinine.
1. COc1cc(O)c2c(=O)c3c(OC)ccc(OC)c3oc2c1 [XC, 1-hydroxy-3,5,8-trimethoxyxanthone]
2. COc1cc(O)c2c(=O)c3c(O)ccc(O)c3oc2c1 [XD, 1,5,8-trihydroxy-3-methoxyxanthone]

Output:
["1.2 ± 0.09 mg/dL", "0.7 ± 0.09 mg/dL"]
